Data provenance: the supplement of paper PMC6555819

- Test system: PPARa:RXRa (NR concentration 270 nM, RXRa partner concentration 90 nM)
- ASSAY OVERVIEW: PBM binding z-score (relative to random genomic background probes); higher = stronger binding; sequences stand for … in GC…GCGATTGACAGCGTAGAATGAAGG
Short version: PBM binding z-score at least 2 is y, less is n.

// below: answered sequences
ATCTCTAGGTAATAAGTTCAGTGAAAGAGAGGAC n
AGAATGAGGTTATTCGTAGATCAGGGAAGAAAGT y
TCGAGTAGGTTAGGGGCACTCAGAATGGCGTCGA n
CCTACTGGGCCAAGGTCATTTATCAGTCAAAGCA y
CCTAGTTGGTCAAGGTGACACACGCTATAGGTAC n
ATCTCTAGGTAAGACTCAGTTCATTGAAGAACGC n
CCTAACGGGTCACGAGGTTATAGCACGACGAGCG y
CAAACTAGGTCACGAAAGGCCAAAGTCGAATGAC y
TCTTGTAGATCAGCAGGTCAAGAAAGCTGGCCAA y
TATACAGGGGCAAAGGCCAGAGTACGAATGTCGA y

Say whether AGTCAAAGTACAGGACGAGGTAACGTAAAGCACG shows PBM binding z-score of 2 or more.
n

Say whether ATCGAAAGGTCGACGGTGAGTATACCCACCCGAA shows PBM binding z-score of 2 or more.
y

Say whether ACAGACAGGTGATGACGGTAACTCAGGCTATCAT shows PBM binding z-score of 2 or more.
n

Say whether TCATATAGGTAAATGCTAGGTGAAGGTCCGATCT shows PBM binding z-score of 2 or more.
n

Say whether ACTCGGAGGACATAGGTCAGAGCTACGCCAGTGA shows PBM binding z-score of 2 or more.
y

Say whether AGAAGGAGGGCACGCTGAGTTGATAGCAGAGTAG shows PBM binding z-score of 2 or more.
n

Say whether GCGACTGGGGCAAAGCAGGTTACCATTAGGTTGG shows PBM binding z-score of 2 or more.
n

Say whether CCTGCTAGGTCATGGTCAGCTAATCTACAGTATG shows PBM binding z-score of 2 or more.
y

Say whether ATCTCTAGGTAACAAGATCAGTGAAAGAGAGGAC shows PBM binding z-score of 2 or more.
n

Say whether ATATGTAGGTTACTTCCGGGTCATTCAGGCTATG shows PBM binding z-score of 2 or more.
y

Say whether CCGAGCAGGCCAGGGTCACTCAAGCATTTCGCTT shows PBM binding z-score of 2 or more.
y

Say whether AGTCAAAGTTCACTAGGTAACGAAAGATTCAGCT shows PBM binding z-score of 2 or more.
y

Say whether ACAGACAGGTGATGAAGGTAACCCAGGCTATCAT shows PBM binding z-score of 2 or more.
n

Say whether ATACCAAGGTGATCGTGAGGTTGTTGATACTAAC shows PBM binding z-score of 2 or more.
n

Say whether TCGAGTAGGTTAGTCGGGGCAATCAGCCAACATA shows PBM binding z-score of 2 or more.
n

Say whether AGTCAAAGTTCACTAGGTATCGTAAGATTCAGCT shows PBM binding z-score of 2 or more.
y
